# experimental.target: UniProt:Q9S446
# Sequence (Q9S446 whole entry): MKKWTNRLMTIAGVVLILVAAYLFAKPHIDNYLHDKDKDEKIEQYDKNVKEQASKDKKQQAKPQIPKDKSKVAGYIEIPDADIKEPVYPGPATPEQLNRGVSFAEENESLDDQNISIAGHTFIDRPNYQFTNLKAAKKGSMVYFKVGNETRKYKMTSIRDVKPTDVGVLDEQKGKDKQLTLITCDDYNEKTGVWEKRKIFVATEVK
# assay.procedure: Inhibition of Staphylococcus aureus ATCC 6538p recombinant SrtA
readout.name: IC50

1. Cc1ccc(S(=O)(=O)Oc2ccc(C(O)c3nccc4c3[nH]c3ccc(Br)cc34)cc2Br)cc1 (centres undefined) | > 166 µM
2. O=C(c1cc(Br)c(O)c(Br)c1)c1nccc2c1[nH]c1cc(Br)ccc12 | > 190 µM
3. OC(c1ccccc1)c1nccc2c1[nH]c1ccc(Br)cc12 (centres undefined) | > 283 µM
4. Oc1ccc(C(O)c2nccc3c2[nH]c2ccccc23)cc1 (centres undefined) | > 344 µM

----------
# Tested on: Salmonella typhimurium
# assay.procedure: Antibacterial activity against Salmonella typhimurium ATCC 14028 after 24 hrs
# Format: functional, Salmonella enterica subsp. enterica serovar Typhimurium
# assay.setup: Salmonella enterica, ATCC 14028, 24 h
readout.name: MIC

1. Oc1ccc(C(O)c2nccc3c2[nH]c2ccc(Br)cc23)cc1Br (stereo not drawn) | > 100 mg/L
2. Cc1ccc(S(=O)(=O)Oc2ccc(C(O)c3nccc4c3[nH]c3ccc(Br)cc34)cc2Br)cc1 (stereo not drawn) | > 100 mg/L
3. Oc1ccc(C(O)c2nccc3c2[nH]c2ccccc23)cc1 (stereo not drawn) | > 100 mg/L
